Test system: Canis familiaris
Test: Antiemetic activity was evaluated in vivo by the suppression of apomorphine-induced emesis in dogs at oral dose of 1.0 mg/kg
Format: functional, Canis lupus familiaris
So basically: Antiemetic activity at 90% or higher? That is True. Lower than 90%? That is False.

compound="CCOc1cc(N)c(Cl)cc1C(=O)NCC1CN(Cc2ccc(F)cc2)CCO1 (configuration not stated) [MOSAPRIDE]" measured_on="Canis familiaris" label_value=False
compound="CCCN1CCCCC(NC(=O)c2cc3[nH]nnc3cc2OC)C1 (configuration not stated)" measured_on="Canis familiaris" label_value=False
compound="CCN1CCCC(NC(=O)c2cc3[nH]nnc3cc2OC)C1 (configuration not stated)" measured_on="Canis familiaris" label_value=False
compound="CCN1CCCCC(NC(=O)c2cc3nnn(C(C)C)c3cc2OC)C1 (configuration not stated)" measured_on="Canis familiaris" label_value=True
compound="CCN1CCCCC(NC(=O)c2cc3[nH]nnc3cc2OC)C1 (configuration not stated)" measured_on="Canis familiaris" label_value=True

Now examine the next entry.
Prompt line: Quick check, Antiemetic activity >= 90%? CCN1CCCCCC(NC(=O)c2cc3[nH]nnc3cc2OC)C1 (configuration not stated)
Response line: True
